Test: toxicokinetics, 28-day monkey study
Assay type: in vivo, cynomolgus monkey
Settings: male, cynomolgus, cynomolgus monkey, plasma, po, 150 mg/kg/day, monkey, Study Day 21, male, 150 mg/kg/day; read-out: AUCLST
readout: AUC (ng·h/mL)
Record the value in ng·h/mL, omitting the unit from your answer.

The measured AUC associated with CCOCc1cnc(Cl)nc1Oc1ccc2c(ccc3sc4c(c32)NC[C@@H](C)NC4=O)n1 [Compound 1] reads 3950

###

Test: single oral dose pharmacokinetics in CD-1 mice
Type: in vivo, mouse
Conditions: CD-1, plasma; mouse, female, single oral 15 mg/kg; read-out: tmax
readout: Tmax (min)
Record the value in min, omitting the unit from your answer.

The measured Tmax associated with CCOCc1cnc(Cl)nc1Oc1ccc2c(ccc3sc4c(c32)NC[C@@H](C)NC4=O)n1 [Compound 1] reads 30

###

Assay: toxicokinetics, single dose and 14-day monkey study
Format: in vivo
Conditions: cynomolgus monkey, plasma, po, 500 mg/kg, monkeys, 500 mg/kg, non-fasted; read-out: Mean Day 1 AUC0-t
readout: AUC(0-t)

The measured AUC(0-t) associated with CCOCc1cnc(Cl)nc1Oc1ccc2c(ccc3sc4c(c32)NC[C@@H](C)NC4=O)n1 reads 11400 ng·h/mL

###

Test: single intravenous dose pharmacokinetics in CD-1 mice
Assay type: in vivo, mouse
Details: CD-1, plasma; mouse, female, single IV 5 mg/kg; read-out: Vdss
readout: Vd

The measured Vd associated with CCOCc1cnc(Cl)nc1Oc1ccc2c(ccc3sc4c(c32)NC[C@@H](C)NC4=O)n1 reads 2.49 L/kg

###

Assay: toxicokinetics, 28-day mouse study;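 for AUC: AUC to the last measurable time point (AUClast)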
Format: in vivo
Conditions: female, Crl:CD1 (ICR), mouse, plasma, po, 100 mg/kg/day, mice, Study Day 21, female, 100 mg/kg/day
Description: There were no notable sex-related differences in Compound 1 exposure. Additionally, toxicokinetic animals received the vehicle or compound in the same manner and dose levels as the main study groups.
readout: AUC (ng·h/mL)
Record the value in ng·h/mL, omitting the unit from your answer.

The measured AUC associated with CCOCc1cnc(Cl)nc1Oc1ccc2c(ccc3sc4c(c32)NC[C@@H](C)NC4=O)n1 reads 32800

###

Test: toxicokinetics, 28-day mouse study
Format: in vivo
Conditions: male, Crl:CD1 (ICR), mouse, plasma, po, 750 mg/kg/day, mice, Study Day 1, male, 750 mg/kg/day
readout: Cmax (ng/mL)
Record the value in ng/mL, omitting the unit from your answer.

The measured Cmax associated with CCOCc1cnc(Cl)nc1Oc1ccc2c(ccc3sc4c(c32)NC[C@@H](C)NC4=O)n1 reads 29800

###

Experiment: toxicokinetics, 28-day mouse study
Assay type: in vivo
Details: male, Crl:CD1 (ICR), mouse, plasma, po, 15 mg/kg/day, mice, Study Day 21, male, 15 mg/kg/day
readout: Cmax (ng/mL)
Record the value in ng/mL, omitting the unit from your answer.

The measured Cmax associated with CCOCc1cnc(Cl)nc1Oc1ccc2c(ccc3sc4c(c32)NC[C@@H](C)NC4=O)n1 reads 2420

###

Test: single oral dose pharmacokinetics in cynomolgus monkeys
Assay type: in vivo, cynomolgus monkey
Settings: cynomolgus monkey, plasma; monkey, female, single oral 375 mg/kg
readout: AUC (ng·h/mL)
Record the value in ng·h/mL, omitting the unit from your answer.

The measured AUC associated with CCOCc1cnc(Cl)nc1Oc1ccc2c(ccc3sc4c(c32)NC[C@@H](C)NC4=O)n1 reads 22600

###

Experiment: single oral dose pharmacokinetics in cynomolgus monkeys
Assay type: in vivo, cynomolgus monkey
Conditions: cynomolgus monkey, plasma; monkey, female, single oral 375 mg/kg, median; read-out: tmax
readout: Tmax
# do not omit the unit; it follows the number

The measured Tmax associated with CCOCc1cnc(Cl)nc1Oc1ccc2c(ccc3sc4c(c32)NC[C@@H](C)NC4=O)n1 reads 6 h

###

Assay: toxicokinetics, 28-day monkey study
Assay type: in vivo, cynomolgus monkey
Conditions: male, cynomolgus monkey, plasma, po, 375 mg/kg/day, monkey, Study Day 1, male, 375 mg/kg/day; read-out: AUCLST
readout: AUC (ng·h/mL)
Record the value in ng·h/mL, omitting the unit from your answer.

The measured AUC associated with CCOCc1cnc(Cl)nc1Oc1ccc2c(ccc3sc4c(c32)NC[C@@H](C)NC4=O)n1 reads 14100

###

Experiment: single intravenous dose pharmacokinetics in CD-1 mice
Format: in vivo, mouse
Details: CD-1, plasma; mouse, female, single IV 5 mg/kg
readout: AUC(0-inf)
# do not omit the unit; it follows the number

The measured AUC(0-inf) associated with CCOCc1cnc(Cl)nc1Oc1ccc2c(ccc3sc4c(c32)NC[C@@H](C)NC4=O)n1 [Compound 1] reads 3430 ng·h/mL

###

Experiment: single oral dose pharmacokinetics in CD-1 mice
Assay type: in vivo, mouse
Settings: CD-1, plasma; mouse, male, single oral 15 mg/kg; read-out: tmax
readout: Tmax (min)
Record the value in min, omitting the unit from your answer.

The measured Tmax associated with CCOCc1cnc(Cl)nc1Oc1ccc2c(ccc3sc4c(c32)NC[C@@H](C)NC4=O)n1 reads 15

###

Experiment: single oral dose pharmacokinetics in cynomolgus monkeys
Assay type: in vivo, cynomolgus monkey
Conditions: cynomolgus monkey, plasma; monkey, male, single oral 50 mg/kg
readout: AUC

The measured AUC associated with CCOCc1cnc(Cl)nc1Oc1ccc2c(ccc3sc4c(c32)NC[C@@H](C)NC4=O)n1 reads 3680 ng·h/mL

###

Assay: exposure in 91-day mouse toxicology study
Conditions: mouse, plasma, 750 mg/kg/day
readout: AUC (µg·h/mL)
Record the value in µg·h/mL, omitting the unit from your answer.

The measured AUC associated with CCOCc1cnc(Cl)nc1Oc1ccc2c(ccc3sc4c(c32)NC[C@@H](C)NC4=O)n1 reads 144

###

Test: single oral dose pharmacokinetics in cynomolgus monkeys
Type: in vivo, cynomolgus monkey
Conditions: cynomolgus monkey, plasma; monkey, male, single oral 150 mg/kg
readout: AUC (ng·h/mL)
Record the value in ng·h/mL, omitting the unit from your answer.

The measured AUC associated with CCOCc1cnc(Cl)nc1Oc1ccc2c(ccc3sc4c(c32)NC[C@@H](C)NC4=O)n1 [Compound 1] reads 8480

###

Test: single oral dose pharmacokinetics in cynomolgus monkeys
Format: in vivo, cynomolgus monkey
Settings: cynomolgus monkey, plasma; monkey, female, single oral 150 mg/kg, median; read-out: tmax
Method: In vitro and in vivo studies were conducted to characterize the absorption, PK, distribution, and metabolism of Compound 1. […] Additionally, plasma samples from single dose PK studies in mice and monkeys were evaluated for circulating metabolites.
readout: Tmax (h)
Record the value in h, omitting the unit from your answer.

The measured Tmax associated with CCOCc1cnc(Cl)nc1Oc1ccc2c(ccc3sc4c(c32)NC[C@@H](C)NC4=O)n1 [Compound 1] reads 2

###

Experiment: single intravenous dose pharmacokinetics in cynomolgus monkeys
Type: in vivo
Details: cynomolgus, cynomolgus monkey, plasma; monkey, female, single IV 5 mg/kg; read-out: Vdss
readout: Vd (L/kg)
Record the value in L/kg, omitting the unit from your answer.

The measured Vd associated with CCOCc1cnc(Cl)nc1Oc1ccc2c(ccc3sc4c(c32)NC[C@@H](C)NC4=O)n1 [Compound 1] reads 1.93

###

Assay: single intravenous dose pharmacokinetics in CD-1 mice
Assay type: in vivo, mouse
Conditions: CD-1, plasma; mouse, male, single IV 5 mg/kg
readout: AUC(0-inf) (ng·h/mL)
Record the value in ng·h/mL, omitting the unit from your answer.

The measured AUC(0-inf) associated with CCOCc1cnc(Cl)nc1Oc1ccc2c(ccc3sc4c(c32)NC[C@@H](C)NC4=O)n1 [Compound 1] reads 4350

###

Experiment: toxicokinetics, 28-day monkey study
Format: in vivo, cynomolgus monkey
Conditions: female, cynomolgus monkey, plasma, po, 15 mg/kg/day, monkey, Study Day 1, female, 15 mg/kg/day (so in the source)
readout: Cmax (ng/mL)
Record the value in ng/mL, omitting the unit from your answer.

The measured Cmax associated with CCOCc1cnc(Cl)nc1Oc1ccc2c(ccc3sc4c(c32)NC[C@@H](C)NC4=O)n1 reads 862

###

Experiment: toxicokinetics, 28-day mouse study;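 for AUC: AUC to the last measurable time point (AUClast)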
Assay type: in vivo
Conditions: male, Crl:CD1 (ICR), mouse, plasma, po, 750 mg/kg/day, mice, Study Day 1, male, 750 mg/kg/day
readout: AUC (µg·h/mL)
Record the value in µg·h/mL, omitting the unit from your answer.

The measured AUC associated with CCOCc1cnc(Cl)nc1Oc1ccc2c(ccc3sc4c(c32)NC[C@@H](C)NC4=O)n1 reads 211

###

Test: single oral dose pharmacokinetics in cynomolgus monkeys
Assay type: in vivo, cynomolgus monkey
Details: cynomolgus monkey, plasma; monkey, male, single oral 50 mg/kg, median; read-out: tmax
readout: Tmax (h)
Record the value in h, omitting the unit from your answer.

The measured Tmax associated with CCOCc1cnc(Cl)nc1Oc1ccc2c(ccc3sc4c(c32)NC[C@@H](C)NC4=O)n1 reads 2

###

Assay: single oral dose pharmacokinetics in CD-1 mice
Assay type: in vivo, mouse
Details: CD-1, plasma; mouse, female, single oral 15 mg/kg
readout: AUC (ng·h/mL)
Record the value in ng·h/mL, omitting the unit from your answer.

The measured AUC associated with CCOCc1cnc(Cl)nc1Oc1ccc2c(ccc3sc4c(c32)NC[C@@H](C)NC4=O)n1 [Compound 1] reads 5170
